Target: Cytochrome P450 2C9 (Homo sapiens)
Assay: Cytochrome P450 family 2 subfamily C member 9 (CYP2C9) small molecule antagonists: luciferase biochemical (cell-free) qHTS assay (AID 1645842); also: nearly all actives have a fitted effect of over 55% in size
Conditions: P450-Glo CYP2C9 enzyme assay, luciferin luminescence; series mostly up to 57.4 µM
Description: National Center for Advancing Translational Sciences [NCATS] Assay Overview: Cytochrome P450 (CYP) enzymes are membrane-bound hemeproteins that play a key role in metabolism of drugs and xenobiotics. Assaying the effect of chemicals on CYP isozymes is useful to minimize the adverse drug reactions and toxicities in drug development process. […] The luciferin products formed are detected with a luciferin detection reagent, and the amount of light produced is proportional to CYP activity. […]
Inconclusive results are not listed. Calls of active or inactive are those of the source. Calls follow the shape of the dose curve; as a rule, active = well fitted inhibition curve with a large enough effect in the repeat runs; inconclusive = weak or mixed curves; inactive = no such curve, though single readings can be large or run the other way.
Select the matching outcome among active, inactive

# input # outcome recorded in this test, key = `CC[C@@]1(c2ccccc2)NC(=O)N(C)C1=O`
# output inactive

# input # outcome recorded in this test, key = `CC(C)(C)C(=O)NCCCC(=O)O`
# output inactive

# input # outcome recorded in this test, key = `O=C(O)[C@@H]1CSCN1`
# output inactive

# input # outcome recorded in this test, key = CN1CCOC(c2ccccc2)c2ccccc2C1 (stereo unspecified)
# output inactive

# input # outcome recorded in this test, key = `Cc1cccc(C)c1NC(=O)CN(CC(=O)O)CC(=O)O`
# output inactive

# input # outcome recorded in this test, key = `Cc1cc(N)c2ccccc2[n+]1CCCCCCCCCC[n+]1c(C)cc(N)c2ccccc21`
# output inactive

# input # outcome recorded in this test, key = `CN(C)CCCN1c2ccccc2CCc2ccccc21`
# output inactive

# input # outcome recorded in this test, key = `NC(=O)c1ncn([C@@H]2O[C@H](CO)[C@@H](O)[C@H]2O)c1N`
# output inactive

# input # outcome recorded in this test, key = `C#CCN(C)Cc1ccccc1`
# output inactive

# input # outcome recorded in this test, key = `CCC(=O)Nc1ccc(O)cc1`
# output inactive

# input # outcome recorded in this test, key = `CC12CCC(CC1)C(C)(C)O2`
# output inactive

# input # outcome recorded in this test, key = `COc1ccc2c(c1)C(=O)N(CCc1ccc(S(=O)(=O)NC(=O)NC3CCCCC3)cc1)C(=O)C2(C)C`
# output active

# input # outcome recorded in this test, key = `Oc1cccc(O)c1`
# output inactive

# input # outcome recorded in this test, key = `Cc1cc(O)cc2c1O[C@](C)(CCC[C@H](C)CCC[C@H](C)CCCC(C)C)CC2`
# output inactive

# input # outcome recorded in this test, key = `CC(=O)Oc1ccc(C2(c3ccc(OC(C)=O)cc3)C(=O)Nc3ccccc32)cc1`
# output active

# input # outcome recorded in this test, key = `COc1cc2[nH]c(=O)[nH]c(=O)c2cc1OC`
# output inactive

# input # outcome recorded in this test, key = `C[C@]12CC[C@@H]3c4ccc(O)cc4CC[C@H]3[C@@H]1CC[C@@H]2OC(=O)CCC1CCCC1`
# output active

# input # outcome recorded in this test, key = `O=C(O)Cc1sc(-c2ccccc2)nc1-c1ccc(Cl)cc1`
# output active

# input # outcome recorded in this test, key = `Nc1ccc(S(=O)(=O)Nc2ccccc2)cc1`
# output inactive

# input # outcome recorded in this test, key = CCCCCCCCCCCCCCCCCCOCC(O)CO (stereo unspecified)
# output inactive

# input # outcome recorded in this test, key = `NCCNCCNCCN`
# output inactive

Data origin, for the record: PubChem BioAssay (NCATS)
